target-or-system: Tubulin (Bos taurus) (UniProt Q6B856+Q862L2+Q862F3)
assay: Inhibition of colchicine binding to tubulin was evaluated only when polymerization IC50 <=1.0 uM
Assay type: protein assay
quantity-kind: inhibition (%)

> print(dat)
                            molecular.string                          target.or.system  reported
 1  COc1cccc(-c2cc(O)c3cc(N4CCOCC4)ccc3n2)c1  Tubulin (Bos taurus) (UniProt Q6B856+Q862L2+Q862F3)        43
 2      Oc1cccc(-c2cc(O)c3cc4c(cc3n2)OCO4)c1  Tubulin (Bos taurus) (UniProt Q6B856+Q862L2+Q862F3)        26
 3  COc1cc([C@@H]2c3cc4c(cc3[C@H](O)[C@H]3COC(=O)[C@H]23)OCO4)cc(OC)c1OC  Tubulin (Bos taurus) (UniProt Q6B856+Q862L2+Q862F3)        84
 4        COc1cccc(-c2cc(O)c3cc(Cl)ccc3n2)c1  Tubulin (Bos taurus) (UniProt Q6B856+Q862L2+Q862F3)        16
 5  Oc1cc(-c2cccc(OC(F)(F)F)c2)nc2cc3c(cc12)OCO3  Tubulin (Bos taurus) (UniProt Q6B856+Q862L2+Q862F3)        40
 6     COc1cccc(-c2cc(O)c3cc4c(cc3n2)OCO4)c1  Tubulin (Bos taurus) (UniProt Q6B856+Q862L2+Q862F3)        39
 7     Oc1cc(-c2cccc(Cl)c2)nc2cc3c(cc12)OCO3  Tubulin (Bos taurus) (UniProt Q6B856+Q862L2+Q862F3)        45
 8     CNc1cccc(-c2cc(O)c3cc4c(cc3n2)OCO4)c1  Tubulin (Bos taurus) (UniProt Q6B856+Q862L2+Q862F3)        17
 9         Oc1cc(-c2ccccc2)nc2cc3c(cc12)OCO3  Tubulin (Bos taurus) (UniProt Q6B856+Q862L2+Q862F3)        26
10  Oc1cc(-c2cccc(OCc3ccccc3)c2)nc2cc3c(cc12)OCO3  Tubulin (Bos taurus) (UniProt Q6B856+Q862L2+Q862F3)        26
11  CN(C)c1cccc(-c2cc(O)c3cc4c(cc3n2)OCO4)c1  Tubulin (Bos taurus) (UniProt Q6B856+Q862L2+Q862F3)        29

Source listed as ChEMBL document CHEMBL1127857.
